biological target: MLE dsRBD1+2 E195A (Drosophila, UniProt P24785 1-264, E195A); assay: fluorescence polarization; FP: 80 nM 3'-FAM RNA stock mixed 1:1 with protein, buffer D (composition not in material), 15 min, 20 C; EMSA: 1200 nM RNA stock mixed 1:1 with protein, buffer; conditions: protein: recombinant; tags: SUMO tag removed by ULP1; label: 3'-FAM; hairpin, 13 nt loop (C135-C147)
Sequence (P24785 1-264 E195A): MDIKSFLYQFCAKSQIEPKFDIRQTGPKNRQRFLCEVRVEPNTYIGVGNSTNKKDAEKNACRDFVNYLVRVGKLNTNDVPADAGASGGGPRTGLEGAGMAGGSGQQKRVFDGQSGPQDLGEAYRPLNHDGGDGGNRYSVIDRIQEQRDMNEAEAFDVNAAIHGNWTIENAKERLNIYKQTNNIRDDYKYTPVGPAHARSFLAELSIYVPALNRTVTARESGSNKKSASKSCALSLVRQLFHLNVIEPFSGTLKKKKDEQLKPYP
property.label: Kd
Provide the measurement as a number trailed by its unit.

stdin: Determine from records and report Kd for R2H1 55mer (FAM) (structured_RNA) RNA: GCUUUAGAGAUCGUUUCGAAUCACAUUGAUAAUCGUUCGAAACGUUCUCCGAAGC
stdout: 150 nM
